- testDescription: Lipophilicity, log P of the compound
- Assay type: physicochemical
- conditionContext: octanol/water; read-out: logP
endpointLabel: logP

These solved cases illustrate the format of a correct answer.
INSERT INTO results (structuresmiles, endpointlabel, readoutvalue) VALUES
  ('c1cc(-c2ccc3ncnc(Nc4cccnn4)c3c2)cc(N2CCOCC2)c1', 'logP', 3.4),
  ('c1ccc(Nc2ncnc3ccc(-c4cccc(N5CCOCC5)c4)cc23)nc1', 'logP', 4.4),
  ('c1cnc(Nc2ncnc3ccc(-c4cccc(N5CCOCC5)c4)cc23)nc1', 'logP', 3.8),
  ('COc1cnc(Nc2ncnc3ccc(-c4cccc(N5CCOCC5)c4)cc23)cn1', 'logP', 3.6),
  ('c1cc(-c2ccc3ncnc(Nc4nccs4)c3c2)cc(N2CCOCC2)c1', 'logP', 4.3);

[I] CC(=O)Nc1cccnc1Nc1ncnc2ccc(-c3cccc(N4CCOCC4)c3)cc12
[II] Fc1cccc(COc2ccc(Nc3ncnc4ccc(-c5ccnc(N6CCOCC6)n5)cc34)cc2Cl)c1
Kindly identify the item with the lower logP figure among these two: I and II Mark your selection by writing its label.
I

---

- testDescription: Lipophilicity, log P of the compound
- Format: physicochemical
- conditionContext: octanol/water; read-out: logP
endpointLabel: logP

INSERT INTO results (structuresmiles, endpointlabel, readoutvalue) VALUES
  ('Nc1ncccc1Nc1ncnc2ccc(-c3cccc(N4CCOCC4)c3)cc12', 'logP', 3.5),
  ('O=c1nc(Nc2ncnc3ccc(-c4cccc(N5CCOCC5)c4)cc23)c(F)c[nH]1', 'logP', 2.7),
  ('Cc1nnc(Nc2ncnc3ccc(-c4cccc(N5CCOCC5)c4)cc23)nc1C', 'logP', 3);

---

- testDescription: Lipophilicity, log P of the compound
- Type: physicochemical
- conditionContext: octanol/water; read-out: logP
endpointLabel: logP

These solved cases illustrate the format of a correct answer.
INSERT INTO measurements (structuresmiles, endpointlabel, readoutvalue) VALUES
  ('O=C(CN1CCOCC1)Nc1ccc2ncnc(Nc3ccc(OCc4cccc(F)c4)c(Cl)c3)c2c1', 'logP', 4.7),
  ('c1cc(-c2ccc3ncnc(Nc4cncnc4)c3c2)cc(N2CCOCC2)c1', 'logP', 3.1),
  ('Cc1cnc(Nc2ncnc3ccc(-c4cccc(N5CCOCC5)c4)cc23)s1', 'logP', 5),
  ('COc1ccc(Nc2ncnc3ccc(-c4cccc(N5CCOCC5)c4)cc23)cc1Cl', 'logP', 5.4),
  ('c1cc(-c2ccc3ncnc(Nc4cnccn4)c3c2)cc(N2CCOCC2)c1', 'logP', 3.2),
  ('c1cc(-c2ccc3ncnc(Nc4ccncn4)c3c2)cc(N2CCOCC2)c1', 'logP', 3.7);

[I] O=c1nc(Nc2ncnc3ccc(-c4cccc(N5CCOCC5)c4)cc23)cc[nH]1
[II] CCn1nccc1Nc1ncnc2ccc(-c3cccc(N4CCOCC4)c3)cc12
Kindly identify the item with the lower logP figure among these two: I and II Mark your selection by writing its label.
I
(I: 2.5, II: 3.9)

[P] c1cc(-c2ccc3ncnc(Nc4nccnn4)c3c2)cc(N2CCOCC2)c1
[Q] Fc1cccc(COc2ccc(Nc3ncnc4ccc(-n5nncc5CN5CCOCC5)cc34)cc2Cl)c1
Kindly identify the item with the lower logP figure among these two: P and Q Mark your selection by writing its label.
P
(P: 2.8, Q: 5.1)

---

- testDescription: Lipophilicity, log P of the compound
- Assay type: physicochemical
- conditionContext: octanol/water; read-out: logP
endpointLabel: logP

These solved cases illustrate the format of a correct answer.
INSERT INTO measurements (structuresmiles, readoutvalue) VALUES
  ('c1cc(-c2ccc3ncnc(Nc4nncs4)c3c2)cc(N2CCOCC2)c1', 3.5),
  ('Cc1ccnc(Nc2ncnc3ccc(-c4cccc(N5CCOCC5)c4)cc23)n1', 3.9),
  ('Cc1cc(Nc2ncnc3ccc(-c4cccc(N5CCOCC5)c4)cc23)on1', 3.6);

[A] Fc1cccc(COc2ccc(Nc3ncnc4ccc(-c5nccc(N6CCOCC6)n5)cc34)cc2Cl)c1
[B] c1cnc(Nc2ncnc3ccc(-c4ccnc(N5CCOCC5)n4)cc23)nc1
Kindly identify the item with the lower logP figure among these two: A and B Mark your selection by writing its label.
B
(B: 2.9, A: 6.5)

[a] Fc1cccc(COc2ccc(Nc3ncnc4ccc(-c5nnc(N6CCOCC6)[nH]5)cc34)cc2Cl)c1
[b] c1cc(-c2ccc3ncnc(Nc4ncco4)c3c2)cc(N2CCOCC2)c1
Task for the reader: decide whether a or b has the larger logP. Mark your selection by writing its label.
a
(a: 5.3, b: 3.6)
